- Test system: P2X7 (Homo sapiens)
- Construct: expressed in transfected cells
- Sequence (Q99572 1-595): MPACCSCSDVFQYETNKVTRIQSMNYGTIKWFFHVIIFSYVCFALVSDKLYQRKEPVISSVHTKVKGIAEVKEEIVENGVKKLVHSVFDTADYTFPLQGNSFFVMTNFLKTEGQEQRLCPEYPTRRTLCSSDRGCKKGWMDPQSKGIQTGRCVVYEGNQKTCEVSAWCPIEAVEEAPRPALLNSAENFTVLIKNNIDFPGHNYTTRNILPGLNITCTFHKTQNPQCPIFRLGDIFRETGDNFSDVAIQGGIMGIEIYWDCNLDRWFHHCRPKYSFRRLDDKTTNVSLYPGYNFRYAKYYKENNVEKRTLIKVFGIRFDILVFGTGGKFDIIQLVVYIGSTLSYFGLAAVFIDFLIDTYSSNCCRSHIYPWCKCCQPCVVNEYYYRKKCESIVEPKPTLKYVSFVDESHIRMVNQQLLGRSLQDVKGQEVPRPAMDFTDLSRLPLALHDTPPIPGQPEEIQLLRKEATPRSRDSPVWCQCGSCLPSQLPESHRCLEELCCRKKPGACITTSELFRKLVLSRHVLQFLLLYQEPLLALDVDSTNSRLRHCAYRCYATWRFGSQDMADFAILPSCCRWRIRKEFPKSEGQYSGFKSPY
- Experiment: ATP-induced YO-PRO-1 dye uptake in HEK-hP2X7 cells
- Assay type: cell-based
- Measurement conditions: HEK-hP2X7, NCI Natural Product Set IV compounds, Fig. 1F; read-out: IC50 (dose inhibition experiments)

Compound | IC50 (µM)
CC1(C)CCC[C@]2(C)C3=C(CC[C@@H]12)C(=O)OC3 [Confertifolin] | 3.86
O=C(O)c1cc(O)c(O)c(OC(=O)c2cc(O)c(O)c(O)c2)c1 [Digallic acid] | 4.05

----------
- Test system: P2X7 (Homo sapiens, UniProt Q99572)
- Construct: expressed in transfected cells
- Sequence (Q99572 1-595): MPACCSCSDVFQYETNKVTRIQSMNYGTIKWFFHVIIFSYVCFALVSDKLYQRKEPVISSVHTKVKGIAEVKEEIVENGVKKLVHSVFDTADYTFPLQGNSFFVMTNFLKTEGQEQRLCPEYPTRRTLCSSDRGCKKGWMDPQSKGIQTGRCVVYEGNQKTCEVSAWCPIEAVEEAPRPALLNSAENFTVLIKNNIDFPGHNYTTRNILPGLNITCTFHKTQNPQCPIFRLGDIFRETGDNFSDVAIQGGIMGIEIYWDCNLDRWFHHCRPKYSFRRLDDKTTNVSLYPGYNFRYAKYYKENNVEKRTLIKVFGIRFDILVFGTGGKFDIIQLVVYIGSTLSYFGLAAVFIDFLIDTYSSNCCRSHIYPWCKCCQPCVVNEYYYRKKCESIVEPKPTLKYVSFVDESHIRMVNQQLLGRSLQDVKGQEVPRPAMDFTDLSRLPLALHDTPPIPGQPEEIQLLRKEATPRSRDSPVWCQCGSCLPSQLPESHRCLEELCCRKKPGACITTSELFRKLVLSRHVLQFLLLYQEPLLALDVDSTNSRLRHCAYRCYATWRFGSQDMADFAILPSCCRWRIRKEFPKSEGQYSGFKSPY
- Experiment: ATP-induced YO-PRO-1 dye uptake in HEK-hP2X7 cells
- Type: cell-based
- Measurement conditions: screen for PAM activity; compound 10 µM injected 60 s before ATP
Reported P2X7 response (% of control) is given for each of the following molecules.

Molecule | Test system | P2X7 response (% of control)
CC[C@H](C)C(=O)O[C@H]1CCC=C2C=C[C@H](C)[C@H](CC[C@@H](O)C[C@@H](O)CC(=O)O)[C@H]21 [Compactin] | P2X7 (Homo sapiens, UniProt Q99572) | 139.71 % of control
C=C(NC(=O)C(=C)NC(=O)c1csc(C2=N[C@@H]3c4csc(n4)[C@H]4NC(=O)c5csc(n5)[C@H]([C@](C)(O)[C@@H](C)O)NC(=O)[C@H]5CSC(=N5)/C(=C/C)NC(=O)[C@H]([C@@H](C)O)NC(=O)c5csc(n5)[C@]3(CC2)NC(=O)[C@H](C)NC(=O)C(=C)NC(=O)C(=C)NC(=O)[C@H](C(C)C)N[C@@H]2C=Cc3c([C@H](C)O)cc(nc3[C@H]2O)C(=O)O[C@@H]4C)n1)C(N)=O [Siomycin A] | P2X7 (Homo sapiens, UniProt Q99572) | 157.10 % of control
CC1=C(C)C(=O)O[C@@H]([C@](C)(O)[C@H]2CC[C@H]3[C@@H]4[C@@H]5O[C@@H]5[C@@]5(O)CC=CC(=O)[C@]5(C)[C@H]4CC[C@]23C)C1 [Withanolide A] | P2X7 (Homo sapiens, UniProt Q99572) | 149.93 % of control
COc1cc2c3c(c1O)-c1cc(O)ccc1C[C@H]3N(C)CC2 [NSC785167] | P2X7 (Homo sapiens, UniProt Q99572) | 125.18 % of control
COc1cc(/C=C/C(=O)CC(=O)/C=C/c2ccc(O)c(OC)c2)ccc1O [Curcumin] | P2X7 (Homo sapiens, UniProt Q99572) | 144.58 % of control
